Here, each record is paired with measured melting point data.

Take a look at these entries with their results.
- CC1(C)OC(=O)C(c2ccc(F)cc2)=C1c1ccc(S(C)(=O)=O)c(CN2CCOCC2)c1 [Example 67]: 127 to 130 °C
- CSc1ccc(C2=C(c3ccc(C(F)(F)F)cc3)C(=O)OC2)cc1C [Example 16]: 140 to 143 °C
- CSc1ccc(C2=C(c3ccc(S(C)(=O)=O)c(F)c3)COC2=O)cc1C [Example 53]: 177 to 180 °C

Qu. Name the recorded melting point for CSc1ccc(C2=C(c3ccc(CC(C)C)cc3)C(=O)OC2)c(F)c1 [Example 35] .
Ans. 92 to 94 °C

Qu. Thanks! And CC1OC(=O)C(c2ccc(F)cc2)=C1c1ccc(S(C)(=O)=O)c(F)c1 (stereo not drawn) [Example 89] ?
Ans. 190 to 192 °C

Qu. What about this compound? CCC1OC(=O)C(c2ccc(F)cc2)=C1c1ccc(S(C)(=O)=O)c(F)c1 (stereo not drawn) [Example 68]
Ans. 176 to 178 °C

* * *

Tgt: COX-1 (Homo sapiens, UniProt P23219)
Construct: Fresh heparinised human whole blood; endogenous in cells; host or cells: human whole blood
Sequence (P23219 24-599): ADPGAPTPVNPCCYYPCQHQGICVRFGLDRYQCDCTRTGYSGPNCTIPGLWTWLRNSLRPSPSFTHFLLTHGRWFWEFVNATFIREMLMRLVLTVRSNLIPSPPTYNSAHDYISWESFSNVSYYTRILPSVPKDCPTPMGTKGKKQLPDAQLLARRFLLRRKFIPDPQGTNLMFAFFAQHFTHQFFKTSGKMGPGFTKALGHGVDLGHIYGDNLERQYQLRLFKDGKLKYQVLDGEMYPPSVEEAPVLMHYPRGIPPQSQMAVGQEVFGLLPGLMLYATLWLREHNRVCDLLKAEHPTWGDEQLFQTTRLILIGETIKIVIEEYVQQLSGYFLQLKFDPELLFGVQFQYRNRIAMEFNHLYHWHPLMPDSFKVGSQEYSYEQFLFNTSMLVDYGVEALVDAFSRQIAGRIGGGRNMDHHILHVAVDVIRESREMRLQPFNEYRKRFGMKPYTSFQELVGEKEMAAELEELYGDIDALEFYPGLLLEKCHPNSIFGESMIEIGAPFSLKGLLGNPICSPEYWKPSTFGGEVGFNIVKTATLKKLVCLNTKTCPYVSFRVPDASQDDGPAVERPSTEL
Procedure text: Human whole blood assay, COX-1 inhibition
Assay type: cell-based
pIC50: −log10 of the molar value.
pIC50 listing for selected molecules.

* CS(=O)(=O)c1ccc(C2=C(c3ccc(F)c(F)c3)C(=O)OC2)c(F)c1 | < 3.30

Qu. # lookup: pIC50 of "Cc1cc(C2=C(c3ccccc3)C(=O)OC2)ccc1S(C)(=O)=O"
Ans. < 3.30

Qu. Another: CC1OC(=O)C(c2ccc(F)cc2)=C1c1ccc(S(C)(=O)=O)c(F)c1 (stereo not shown)
Ans. < 3.00

Qu. // next record "COc1ccc(C2=C(c3ccc(S(C)(=O)=O)c(C)c3)COC2=O)cc1C"
Ans. < 4.00

* * *

Experimental readout: melting point

Use these answered entries as a reference point.
• CSc1ccc(C2=C(c3ccc(CC(C)C)cc3)C(=O)OC2)cc1C [Example 11] = 146 to 149 °C
• COOSc1ccc(C2=C(c3ccc(C)cc3)C(=O)OC2)cc1Cl [Example 29] = 164 to 166 °C

Attention now turns to another entry.
Qu. Which value of melting point has been reported for CSc1ccc(C2=C(c3ccc(F)c(F)c3)C(=O)OC2)cc1C [Example 3] in the records?
Ans. 150 to 153 °C

Source of measurements: patent US6686390B2
